Field: pIC50. Provide a value for each of the compounds that follow.
system.under.test: JAK1-JH2 domain (Homo sapiens)
Construct: JAK1-JH2 domain or TYK2-JH2 domain enzyme in assay buffer
assay.explanation: Binding activity test for JH2 domain of JAK1 (Tb-antibody/tracer FRET)
applied.conditions: JH2 domain enzyme; 60 min at 25°C, then 4°C overnight; read-out: JAK1 JH2 Binding IC50
# reply with the number alone; pIC50 is -log10 of concentration in mol/L

Please look up its pIC50: `[2H]C([2H])([2H])NC(=O)c1cnc(NC(=O)C2CC2)cc1Nc1cnn2ccc(COC)c(OC)c12` 7.85

Which pIC50 is listed for `COc1c(Nc2cc(NC(=O)C3CC3)ncc2C(C)(F)F)cccc1-c1cnn(C)n1` ? 8.99

Entry [2H]C([2H])([2H])NC(=O)c1cnc(NC(=O)C2CC2)cc1Nc1nn(C)c2ccc([C@H](OC([2H])([2H])[2H])C(F)(F)F)c(OC)c12 [Example 55A] : reported pIC50 = ? 8.59

Look up pIC50: `[2H]C([2H])([2H])NC(=O)c1cnc(Nc2ccn(C)n2)cc1Nc1cnn2ccc([C@H](O)C(F)(F)F)c(OC)c12` 7.96

Need pIC50 of [2H]C([2H])([2H])NC(=O)c1cnc(NC(=O)C2CC23CC3)cc1Nc1nn(C)c2ccc([C@H](O)C(F)(F)F)c(OC)c12 (stereo partly drawn) , thanks. 8.25

---

assay.explanation: Mice colon pharmacokinetic studies
Format: in vivo
applied.conditions: mouse, plasma; female Balb/c mice, oral gavage, 10 mg/kg; read-out: Plasma T1/2 (converted)
endpoint.label: half-life (h)
Answer format: numeric, h implied, no suffix.

I have this compound here, [2H]C([2H])([2H])NC(=O)c1cnc(NC(=O)C2CC2)cc1Nc1nn(C)c2ccc([C@H](O)C(F)(F)F)c(OC)c12 [Example 49A] , and I need its recorded half-life. 1.03

Name the reported half-life value associated with the compound `[2H]C([2H])([2H])NC(=O)c1cnc(NC(=O)C2CC2)cc1Nc1cnn2ccc([C@H](O)C(F)(F)F)c(OC)c12` 1.75

---

Give measured pIC50 for each item. Keep answers brief.
system.under.test: JAK1-JH2 domain (Homo sapiens, UniProt P23458)
Construct: JAK1-JH2 domain or TYK2-JH2 domain enzyme in assay buffer
Sequence (P23458 583-855 limits assumed): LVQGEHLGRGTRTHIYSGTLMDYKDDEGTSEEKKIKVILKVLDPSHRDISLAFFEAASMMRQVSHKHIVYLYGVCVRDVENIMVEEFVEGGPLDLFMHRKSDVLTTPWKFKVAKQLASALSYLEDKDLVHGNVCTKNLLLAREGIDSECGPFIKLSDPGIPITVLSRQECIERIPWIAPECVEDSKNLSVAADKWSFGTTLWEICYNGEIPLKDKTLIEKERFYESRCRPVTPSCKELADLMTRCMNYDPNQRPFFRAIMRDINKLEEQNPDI
assay.explanation: Binding activity test for JH2 domain of JAK1 (Tb-antibody/tracer FRET)
applied.conditions: JH2 domain enzyme; 60 min at 25°C, then 4°C overnight; read-out: JAK1 JH2 Binding IC50
Notebook: values listed as pIC50 are -log10 of the concentration (mol/L).

// map `[2H]C([2H])([2H])NC(=O)c1cnc(NC(=O)[C@@H]2C[C@@H]2F)cc1Nc1nn(C)c2ccc([C@H](OC([2H])([2H])[2H])C(F)(F)F)c(OC)c12` to recorded pIC50 (system: JAK1-JH2 domain (Homo sapiens, UniProt P23458)) 8.58

Hello, I am looking for reported pIC50 with JAK1-JH2 domain (Homo sapiens, UniProt P23458) for `[2H]C([2H])([2H])NC(=O)c1cnc(NC(=O)C2CC2)cc1Nc1cnn2cnc(OC)c(OC)c12` . Could you help? 7.03

JAK1-JH2 domain (Homo sapiens, UniProt P23458) / pIC50 / [2H]C([2H])([2H])NC(=O)c1cnc(NC(=O)C2CC2)cc1Nc1nn(C)c2ccc(C(OC)C(F)(F)F)c(OC)c12 (stereo not shown) : value? 8.17
